Target: T1, FGFR1c and the cofactor β-Klotho (Homo sapiens, UniProt P11362+Q86Z14)
T1 construct: host or cells: iLite FGF21 assay ready cells (genetically engineered reporter gene cell line)
T1 sequence (P11362 22-822): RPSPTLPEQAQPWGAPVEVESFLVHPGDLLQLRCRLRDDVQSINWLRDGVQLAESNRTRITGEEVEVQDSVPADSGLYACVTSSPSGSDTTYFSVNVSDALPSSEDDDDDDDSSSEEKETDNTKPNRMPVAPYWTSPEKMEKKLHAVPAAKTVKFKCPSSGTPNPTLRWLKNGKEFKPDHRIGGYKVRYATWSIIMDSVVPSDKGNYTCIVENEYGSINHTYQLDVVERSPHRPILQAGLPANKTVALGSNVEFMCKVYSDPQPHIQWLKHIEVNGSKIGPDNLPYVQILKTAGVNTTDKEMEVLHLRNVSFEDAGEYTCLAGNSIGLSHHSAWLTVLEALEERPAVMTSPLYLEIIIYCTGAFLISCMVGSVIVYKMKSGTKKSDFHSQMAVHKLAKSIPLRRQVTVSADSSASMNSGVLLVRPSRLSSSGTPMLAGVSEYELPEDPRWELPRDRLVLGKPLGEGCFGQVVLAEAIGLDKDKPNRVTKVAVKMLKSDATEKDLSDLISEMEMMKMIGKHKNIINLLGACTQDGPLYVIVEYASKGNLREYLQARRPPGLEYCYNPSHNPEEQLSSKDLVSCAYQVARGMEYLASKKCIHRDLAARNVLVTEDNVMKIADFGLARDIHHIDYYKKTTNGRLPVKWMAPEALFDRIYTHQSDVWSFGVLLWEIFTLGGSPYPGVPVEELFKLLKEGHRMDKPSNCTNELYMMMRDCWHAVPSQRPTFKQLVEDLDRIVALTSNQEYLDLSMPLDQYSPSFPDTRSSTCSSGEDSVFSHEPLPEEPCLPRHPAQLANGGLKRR
T1 sequence (Q86Z14 whole entry): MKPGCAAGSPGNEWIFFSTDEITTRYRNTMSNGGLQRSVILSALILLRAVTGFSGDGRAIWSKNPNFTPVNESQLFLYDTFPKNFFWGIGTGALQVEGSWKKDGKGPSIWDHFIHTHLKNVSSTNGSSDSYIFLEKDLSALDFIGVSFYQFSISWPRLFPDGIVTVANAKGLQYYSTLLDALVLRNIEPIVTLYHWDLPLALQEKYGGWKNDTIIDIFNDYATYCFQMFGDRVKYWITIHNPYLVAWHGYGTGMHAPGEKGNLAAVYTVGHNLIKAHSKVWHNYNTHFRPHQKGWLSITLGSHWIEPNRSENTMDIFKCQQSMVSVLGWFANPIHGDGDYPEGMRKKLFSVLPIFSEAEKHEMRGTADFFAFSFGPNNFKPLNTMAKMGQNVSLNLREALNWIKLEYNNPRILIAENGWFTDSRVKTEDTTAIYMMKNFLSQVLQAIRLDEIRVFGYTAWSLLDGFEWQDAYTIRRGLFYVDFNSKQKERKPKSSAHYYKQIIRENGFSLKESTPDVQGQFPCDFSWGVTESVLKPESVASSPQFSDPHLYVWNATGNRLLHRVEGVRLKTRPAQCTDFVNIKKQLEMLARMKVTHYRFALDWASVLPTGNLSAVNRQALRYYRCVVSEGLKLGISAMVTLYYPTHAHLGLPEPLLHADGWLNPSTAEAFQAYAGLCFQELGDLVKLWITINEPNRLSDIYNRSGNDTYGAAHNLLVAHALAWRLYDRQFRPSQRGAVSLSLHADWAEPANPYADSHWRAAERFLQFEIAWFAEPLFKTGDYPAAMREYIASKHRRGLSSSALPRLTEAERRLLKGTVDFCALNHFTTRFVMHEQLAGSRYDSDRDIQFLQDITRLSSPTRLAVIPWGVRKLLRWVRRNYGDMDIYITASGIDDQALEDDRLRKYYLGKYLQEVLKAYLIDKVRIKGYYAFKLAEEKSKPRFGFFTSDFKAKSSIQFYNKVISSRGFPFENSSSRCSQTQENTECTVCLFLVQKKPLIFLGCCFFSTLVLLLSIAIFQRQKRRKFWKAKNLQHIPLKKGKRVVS
Assay: dual-luciferase reporter gene assay in iLite FGF21 assay ready cells
Type: cell-based
Conditions: Example 6, four-parameter fitting
Documented EC50 across a set of molecules
Kindly provide the numeric value in nM only, without the unit symbol.

Compound 5.14: FGF21K122C mutant (SEQ NO: 8) modified by the albumin-binding agent of Example 2.4 (conjugate, albumin-binding agent of Example 2.4) HPIPDSSPLLQFGGQVRQRYLYTDDAQQTEAHLEIREDGTVGGAADQSPESLLQLKALKPGVIQILGVKTSRFLCQRPDGALYGSLHFDPEACSFRERLLEDGYNVYQSEAHGLPLHLPGNCSPHRDPAPRGPARFLPLPGLPPAPPEPPGILAPQPPDVGSSDPLSMVGGSQGRSPSYES | 1.02
Compound 5.15: FGF21H125C mutant (SEQ NO: 9) modified by the albumin-binding agent of Example 2.4 (conjugate, albumin-binding agent of Example 2.4) HPIPDSSPLLQFGGQVRQRYLYTDDAQQTEAHLEIREDGTVGGAADQSPESLLQLKALKPGVIQILGVKTSRFLCQRPDGALYGSLHFDPEACSFRERLLEDGYNVYQSEAHGLPLHLPGNKSPCRDPAPRGPARFLPLPGLPPAPPEPPGILAPQPPDVGSSDPLSMVGGSQGRSPSYES | 0.47

Next, consider the following molecule.
Determine from records and report EC50 for Compound 5.2: FGF21D38C mutant (SEQ NO: 6) modified by the albumin-binding agent of Example 2.1 (conjugate, albumin-binding agent of Example 2.1) HPIPDSSPLLQFGGQVRQRYLYTDDAQQTEAHLEIRECGTVGGAADQSPESLLQLKALKPGVIQILGVKTSRFLCQRPDGALYGSLHFDPEACSFRERLLEDGYNVYQSEAHGLPLHLPGNKSPHRDPAPRGPARFLPLPGLPPAPPEPPGILAPQPPDVGSSDPLSMVGGSQGRSPSYES 1.99
